Cited source: patent US20230192617A1

test: Measurement of Log P values by HPLC on reversed phase columns (EEC directive 79/831 Annex V.A8); assay type: physicochemical; conditions: reversed phase HPLC column, method [a]: LC-UV, acidic range, 0.1% formic acid in water and acetonitrile as eluent
metric-name: chromatographic logP

{"compound-string": "Cc1cccc(Oc2nnc3ccccc3c2C(=O)NCC(F)(F)c2ccc(Cl)cc2)c1", "reported-measurement": 3.87}
{"compound-string": "Cc1cc(Br)ccc1C(F)(F)CNC(=O)c1c(Oc2cccc(C(F)(F)F)c2)nnc2c1COCC2", "reported-measurement": 3.94}
{"compound-string": "CCOC(=O)c1c(Oc2cccc(C(F)(F)F)c2)nnc2c1CCC2(C)C", "reported-measurement": 4.4}
{"compound-string": "C=Cc1ccc(C(F)(F)CNC(=O)c2c(Oc3cccc(C(F)(F)F)c3)nnc3ccccc23)c(Cl)c1", "reported-measurement": 4.62}
